- test target: EGFR (L858R) (Homo sapiens, UniProt P00533, L858R)
- Sequence (P00533 25-1210 L858R): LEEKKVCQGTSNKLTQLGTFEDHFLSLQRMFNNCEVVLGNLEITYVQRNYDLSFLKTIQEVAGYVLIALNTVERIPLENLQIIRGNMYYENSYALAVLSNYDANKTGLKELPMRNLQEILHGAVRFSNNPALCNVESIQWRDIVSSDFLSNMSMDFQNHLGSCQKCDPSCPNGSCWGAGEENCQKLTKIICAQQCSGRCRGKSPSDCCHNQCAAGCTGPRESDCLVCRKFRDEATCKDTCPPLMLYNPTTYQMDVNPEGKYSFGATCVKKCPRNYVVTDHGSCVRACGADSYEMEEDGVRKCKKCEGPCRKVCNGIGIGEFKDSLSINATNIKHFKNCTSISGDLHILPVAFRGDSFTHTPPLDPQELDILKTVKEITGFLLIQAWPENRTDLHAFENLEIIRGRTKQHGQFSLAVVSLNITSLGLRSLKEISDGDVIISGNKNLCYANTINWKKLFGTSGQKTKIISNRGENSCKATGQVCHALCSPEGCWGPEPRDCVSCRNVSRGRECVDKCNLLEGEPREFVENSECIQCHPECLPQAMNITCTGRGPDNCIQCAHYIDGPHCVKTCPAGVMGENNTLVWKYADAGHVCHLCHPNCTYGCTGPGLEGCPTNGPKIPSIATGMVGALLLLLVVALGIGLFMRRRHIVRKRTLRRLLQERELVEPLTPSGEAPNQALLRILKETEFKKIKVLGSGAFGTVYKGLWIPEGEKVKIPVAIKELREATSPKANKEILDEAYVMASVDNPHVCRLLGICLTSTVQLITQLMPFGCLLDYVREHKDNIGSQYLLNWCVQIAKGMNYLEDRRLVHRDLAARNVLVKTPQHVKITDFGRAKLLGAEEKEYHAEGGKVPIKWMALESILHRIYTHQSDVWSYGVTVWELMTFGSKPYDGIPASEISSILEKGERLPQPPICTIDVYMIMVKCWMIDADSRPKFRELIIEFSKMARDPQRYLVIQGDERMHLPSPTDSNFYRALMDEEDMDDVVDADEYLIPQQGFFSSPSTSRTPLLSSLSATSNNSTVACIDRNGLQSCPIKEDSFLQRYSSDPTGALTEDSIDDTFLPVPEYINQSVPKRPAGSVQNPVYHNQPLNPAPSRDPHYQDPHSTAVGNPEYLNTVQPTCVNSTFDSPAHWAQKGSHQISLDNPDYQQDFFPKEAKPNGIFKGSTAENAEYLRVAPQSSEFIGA
- assay info: EGFR (L858R) kinase inhibitory activity
- assay setup: ATP 4 μM
pIC50: −log10 of the molar value.
Respond with true for pIC50 values of 9 and above, false for values below.

{"columns": ["molecule", "test target", "class label"],
 "data": [
  ["C#CC(=O)N[C@@H]1Cn2c(c(-c3cnc4ccccc4c3)c3c(N)ncnc32)C1=C", "EGFR (L858R) (Homo sapiens, UniProt P00533, L858R)", "true"],
  ["C=C1c2c(-c3cnc4ccccc4c3)c3c(N)ncnc3n2C[C@H]1NC(=O)/C=C/Cl", "EGFR (L858R) (Homo sapiens, UniProt P00533, L858R)", "true"],
  ["C=CC(=O)N(C)[C@@H]1CC(=C)c2c(-c3cnc4ccccc4c3)c3c(N)ncnc3n2C1", "EGFR (L858R) (Homo sapiens, UniProt P00533, L858R)", "true"],
  ["C=CC(=O)N[C@@H]1C=C(C)c2c(-c3cnc4ccccc4c3)c3c(N)ncnc3n2C1", "EGFR (L858R) (Homo sapiens, UniProt P00533, L858R)", "false"],
  ["C=CC(=O)N[C@H]1C/C(=C\\C)c2c(-c3cnc4ccccc4c3)c3c(N)ncnc3n2C1", "EGFR (L858R) (Homo sapiens, UniProt P00533, L858R)", "true"],
  ["C=C(C)C(=O)N[C@@H]1Cn2c(c(-c3cnc4ccccc4c3)c3c(N)ncnc32)C1=C", "EGFR (L858R) (Homo sapiens, UniProt P00533, L858R)", "false"],
  ["C=CC(=O)N[C@@H]1Cn2c(c(-c3cnc4ccccc4c3)c3c(N)ncnc32)C1=C", "EGFR (L858R) (Homo sapiens, UniProt P00533, L858R)", "true"],
  ["C=CC(=O)N[C@@H]1CCn2c(c(-c3cnc4ccccc4c3)c3c(N)ncnc32)C(=C)C1", "EGFR (L858R) (Homo sapiens, UniProt P00533, L858R)", "false"],
  ["C=CC(=O)N[C@H]1CC(C)c2c(-c3cnc4ccccc4c3)c3c(N)ncnc3n2C1 (stereo partly shown)", "EGFR (L858R) (Homo sapiens, UniProt P00533, L858R)", "false"],
  ["C=CC(=O)N[C@@H]1CCn2c(c(-c3cnc4ccccc4c3)c3c(N)ncnc32)C1=C", "EGFR (L858R) (Homo sapiens, UniProt P00533, L858R)", "false"],
  ["C=C1c2c(-c3cnc4ccccc4c3)c3c(N)ncnc3n2C[C@H]1NC(=O)C#CC", "EGFR (L858R) (Homo sapiens, UniProt P00533, L858R)", "false"],
  ["C=C1c2c(-c3cnc4ccccc4c3)c3c(N)ncnc3n2C[C@H]1NC(=O)C=CC (mixture of isomers)", "EGFR (L858R) (Homo sapiens, UniProt P00533, L858R)", "false"],
  ["C=CC(=O)N[C@H]1C=Cc2c(-c3cnc4ccccc4c3)c3c(N)ncnc3n2CC1", "EGFR (L858R) (Homo sapiens, UniProt P00533, L858R)", "true"],
  ["C=CC(=O)N[C@H]1Cn2c(c(-c3cnc4ccccc4c3)c3c(N)ncnc32)C1=C", "EGFR (L858R) (Homo sapiens, UniProt P00533, L858R)", "false"],
  ["C=C1c2c(-c3cnc4ccccc4c3)c3c(N)ncnc3n2C[C@H]1NC(=O)/C=C/CN(CC)CC", "EGFR (L858R) (Homo sapiens, UniProt P00533, L858R)", "false"],
  ["C=CC(=O)N[C@H]1C=C(C)c2c(-c3cnc4ccccc4c3)c3c(N)ncnc3n2C1", "EGFR (L858R) (Homo sapiens, UniProt P00533, L858R)", "true"],
  ["C=CC(=O)N[C@H]1C=Cc2c(-c3cnc4ccccc4c3)c3c(N)ncnc3n2C1", "EGFR (L858R) (Homo sapiens, UniProt P00533, L858R)", "true"],
  ["C=CC(=O)N[C@@H]1CC(=C)c2c(-c3cnc4ccccc4c3)c3c(N)ncnc3n2C1", "EGFR (L858R) (Homo sapiens, UniProt P00533, L858R)", "false"],
  ["C=C1c2c(-c3cnc4ccccc4c3)c3c(N)ncnc3n2C[C@H]1NC(=O)/C=C\\Cl", "EGFR (L858R) (Homo sapiens, UniProt P00533, L858R)", "true"]
]}

###

- test target: EGFR (T790M/L858R) (Homo sapiens, UniProt P00533, L858R/T790M)
- Sequence (P00533 25-1210 T790M/L858R): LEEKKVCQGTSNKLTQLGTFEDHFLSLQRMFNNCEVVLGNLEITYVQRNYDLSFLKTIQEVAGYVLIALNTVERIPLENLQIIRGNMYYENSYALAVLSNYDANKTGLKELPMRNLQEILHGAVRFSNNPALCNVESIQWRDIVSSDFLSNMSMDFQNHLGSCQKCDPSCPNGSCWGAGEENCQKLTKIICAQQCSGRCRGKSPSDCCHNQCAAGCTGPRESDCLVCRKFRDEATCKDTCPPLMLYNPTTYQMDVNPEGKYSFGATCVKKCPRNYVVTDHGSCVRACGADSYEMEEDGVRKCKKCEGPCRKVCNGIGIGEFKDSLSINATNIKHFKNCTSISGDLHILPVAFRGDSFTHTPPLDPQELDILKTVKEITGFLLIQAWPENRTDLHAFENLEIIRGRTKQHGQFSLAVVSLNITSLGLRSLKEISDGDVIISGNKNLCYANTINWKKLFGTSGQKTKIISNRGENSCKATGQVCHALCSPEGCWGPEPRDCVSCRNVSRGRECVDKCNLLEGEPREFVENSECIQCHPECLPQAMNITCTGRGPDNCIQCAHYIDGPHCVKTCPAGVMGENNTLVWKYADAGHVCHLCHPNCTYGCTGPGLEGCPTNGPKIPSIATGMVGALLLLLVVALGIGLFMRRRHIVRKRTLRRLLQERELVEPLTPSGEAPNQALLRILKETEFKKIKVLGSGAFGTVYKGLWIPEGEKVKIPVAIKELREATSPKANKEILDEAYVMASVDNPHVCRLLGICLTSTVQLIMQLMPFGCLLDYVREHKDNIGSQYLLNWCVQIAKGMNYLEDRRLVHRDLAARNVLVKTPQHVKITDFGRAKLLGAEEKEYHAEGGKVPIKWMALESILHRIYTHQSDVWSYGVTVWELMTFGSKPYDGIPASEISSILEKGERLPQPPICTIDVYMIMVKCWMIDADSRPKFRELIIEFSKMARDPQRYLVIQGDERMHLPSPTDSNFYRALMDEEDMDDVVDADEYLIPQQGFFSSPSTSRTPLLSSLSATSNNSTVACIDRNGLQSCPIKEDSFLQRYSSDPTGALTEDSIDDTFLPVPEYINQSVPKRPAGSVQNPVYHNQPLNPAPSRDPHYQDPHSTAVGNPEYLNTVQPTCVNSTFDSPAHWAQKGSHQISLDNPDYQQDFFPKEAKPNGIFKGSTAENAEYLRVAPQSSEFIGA
- assay info: EGFR (T790M/L858R) kinase inhibitory activity
- assay setup: ATP 1 μM, 25° C. for 120 minutes
Rule: measured IC50 below 2 nM gets yes (1); anything equal to or greater than 2 nM gets no (0).

{"columns": ["molecule", "class label"],
 "data": [
  ["C=CC(=O)N[C@H]1C=C(C)c2c(-c3cnc4ccccc4c3)c3c(N)ncnc3n2C1", "yes (1)"],
  ["C=CC(=O)N[C@H]1CC(C)c2c(-c3cnc4ccccc4c3)c3c(N)ncnc3n2C1 (stereo partly shown)", "no (0)"],
  ["C=CC(=O)N(C)[C@@H]1C=C(C)c2c(-c3cnc4ccccc4c3)c3c(N)ncnc3n2C1", "yes (1)"],
  ["C=C1c2c(-c3cnc4ccccc4c3)c3c(N)ncnc3n2C[C@H]1NC(=O)/C=C/CN(C)CC", "yes (1)"],
  ["C=CC(=O)N[C@@H]1C=C(C)c2c(-c3cnc4ccccc4c3)c3c(N)ncnc3n2C1", "no (0)"],
  ["C=CC(=O)N(C)[C@H]1Cn2c(c(-c3cnc4ccccc4c3)c3c(N)ncnc32)C1=C", "yes (1)"],
  ["C=CC(=O)N(C)[C@@H]1CC(=C)c2c(-c3cnc4ccccc4c3)c3c(N)ncnc3n2C1", "yes (1)"],
  ["C#CC(=O)N[C@@H]1Cn2c(c(-c3cnc4ccccc4c3)c3c(N)ncnc32)C1=C", "yes (1)"],
  ["C=CC(=O)N[C@@H]1CC(=C)c2c(-c3cnc4ccccc4c3)c3c(N)ncnc3n2C1", "no (0)"],
  ["C=CC(=O)N[C@H]1Cn2c(c(-c3cnc4ccccc4c3)c3c(N)ncnc32)C1=C", "no (0)"],
  ["C=C1c2c(-c3cnc4ccccc4c3)c3c(N)ncnc3n2C[C@H]1NC(=O)C#CC", "no (0)"],
  ["C=CC(=O)N[C@H]1C/C(=C\\C)c2c(-c3cnc4ccccc4c3)c3c(N)ncnc3n2C1", "yes (1)"],
  ["C=C1c2c(-c3cnc4ccccc4c3)c3c(N)ncnc3n2C[C@H]1NC(=O)/C=C/CN(C)C(C)C", "yes (1)"],
  ["C=CC(=O)N(C)[C@@H]1Cn2c(c(-c3cnc4ccccc4c3)c3c(N)ncnc32)C1=C", "yes (1)"],
  ["C=CC(=O)N[C@@H]1Cn2c(c(-c3cnc4ccccc4c3)c3c(N)ncnc32)C1=C", "yes (1)"],
  ["C=C1c2c(-c3cnc4ccccc4c3)c3c(N)ncnc3n2C[C@H]1NC(=O)C=CC (mixture of isomers)", "no (0)"]
]}

###

// GI50 collected for HCC827 expressing EGFR (d746-750)

{"columns": ["compound", "test target", "GI50 (nM)"],
 "data": [
  ["C=C1c2c(-c3cnc4ccccc4c3)c3c(N)ncnc3n2C[C@H]1NC(=O)/C=C\\Cl", "HCC827 expressing EGFR (d746-750)", 3.3],
  ["C#CC(=O)N[C@@H]1Cn2c(c(-c3cnc4ccccc4c3)c3c(N)ncnc32)C1=C", "HCC827 expressing EGFR (d746-750)", 66],
  ["C=CC(=O)N[C@@H]1Cn2c(c(-c3cnc4ccccc4c3)c3c(N)ncnc32)C1C (stereo partly drawn)", "HCC827 expressing EGFR (d746-750)", 4.9]
]}

###

- Tested on: NCI-H1975 expressing EGFR (T790M/L858R)
- assay info: Growth inhibition, NCI-H1975 expressing EGFR (T790M/L858R)
- Assay type: cell-based
- assay setup: Homo sapiens, NCI-H1975, 72 h; cultured three days, CellTiter-Glo
Rule: measured GI50 below 600 nM gets 1; anything equal to or greater than 600 nM gets 0.

{"columns": ["molecule", "test target", "class label"],
 "data": [
  ["C=CC(=O)N[C@H]1CC(=C)c2c(-c3cnc4ccccc4c3)c3c(N)ncnc3n2C1 [Example 15]", "NCI-H1975 expressing EGFR (T790M/L858R)", 1],
  ["C=CC(=O)N[C@H]1C=C(C)c2c(-c3cnc4ccccc4c3)c3c(N)ncnc3n2C1 [Example 14]", "NCI-H1975 expressing EGFR (T790M/L858R)", 1],
  ["C=CC(=O)N[C@@H]1Cn2c(c(-c3cnc4ccccc4c3)c3c(N)ncnc32)C1C (some centres unmarked) [Example 24]", "NCI-H1975 expressing EGFR (T790M/L858R)", 1],
  ["C=CC(=O)N[C@H]1CC(C)c2c(-c3cnc4ccccc4c3)c3c(N)ncnc3n2C1 (some centres unmarked) [Example 29]", "NCI-H1975 expressing EGFR (T790M/L858R)", 0],
  ["C=C1c2c(-c3cnc4ccccc4c3)c3c(N)ncnc3n2C[C@H]1NC(=O)/C=C/CN(C)C(C)C [Example 12]", "NCI-H1975 expressing EGFR (T790M/L858R)", 1],
  ["C=CC(=O)N[C@H]1Cn2c(c(-c3cnc4ccccc4c3)c3c(N)ncnc32)C1=C [Example 25]", "NCI-H1975 expressing EGFR (T790M/L858R)", 0],
  ["C=C1c2c(-c3cnc4ccccc4c3)c3c(N)ncnc3n2C[C@H]1NC(=O)/C=C/CN1CCCCC1 [Example 7]", "NCI-H1975 expressing EGFR (T790M/L858R)", 1]
]}

Origin of measurements: patent US9758526B2
